Target: HasBCTD
Experiment: ITC interaction of HasBCTD with HasR TonB box peptides
Assay type: binding, Serratia marcescens
Conditions: ITC, HasBCTD, 25°C, 20 mM sodium phosphate, pH 7, 50 mM NaCl; Kd = 1/Ka
Ends that are not written are not given here.
measured.property: Kd (µM)

>>> experimental_result("GDGGALALDSLTVLGAGGNNA [21-mer peptide]")
25
